# TESTED SYSTEM: Stimulator of interferon genes protein (Homo sapiens)
# ASSAY NAME: Activation of human STING expressed in monocytes co-expressing IFN assessed as alkaline phosphatase secretion by SEAP reporter gene assay
# Type: cell-based
The source made the active and inactive calls. The calls are words filed in the database; no cut-off is given here.
PARAMETER: Activity

>>> print(df.to_string())
                           molecular_string                             tested_system  parameter  data_value
0  C=CCNc1ncnc2c1ncn2[C@@H]1O[C@H](CO)[C@@H](O)[C@H]1O  Stimulator of interferon genes protein (Homo sapiens)   Activity      Active
1                       CCOc1ncnc2[nH]cnc12  Stimulator of interferon genes protein (Homo sapiens)   Activity    inactive
2  CCNc1ncnc2c1ncn2[C@@H]1O[C@H](CO)[C@@H](O)[C@H]1O  Stimulator of interferon genes protein (Homo sapiens)   Activity      Active
3  OC[C@H]1O[C@@H](n2cnc3c(OCC(F)F)ncnc32)[C@H](O)[C@@H]1O  Stimulator of interferon genes protein (Homo sapiens)   Activity      Active
4  CN(C)CCNc1ncnc2c1ncn2[C@@H]1O[C@H](CO)[C@@H](O)[C@H]1O  Stimulator of interferon genes protein (Homo sapiens)   Activity      Active
5  CCOc1nc(N)nc2c1ncn2[C@@H]1O[C@H](CO)[C@@H](O)[C@H]1O  Stimulator of interferon genes protein (Homo sapiens)   Activity    inactive
6                CN(C)/C=N/c1ncnc2[nH]cnc12  Stimulator of interferon genes protein (Homo sapiens)   Activity    inactive
7  CN(C)/C=N/c1ccn([C@@H]2O[C@H](CO)[C@@H](O)[C@H]2O)c(=O)n1  Stimulator of interferon genes protein (Homo sapiens)   Activity    inactive

Qu. // lookup Activity for `CCOc1ncnc2c1ncn2[C@@H]1O[C@H](COC(=O)[C@@H](N)C(C)C)[C@@H](O)[C@H]1O`
Ans. Active

Qu. Entry to check: `COc1ncnc2c1ncn2[C@@H]1O[C@H](CCl)[C@@H](O)[C@H]1O`
Ans. inactive

---

# TESTED SYSTEM: UniProt Q86WV6
# Sequence (Q86WV6 whole entry): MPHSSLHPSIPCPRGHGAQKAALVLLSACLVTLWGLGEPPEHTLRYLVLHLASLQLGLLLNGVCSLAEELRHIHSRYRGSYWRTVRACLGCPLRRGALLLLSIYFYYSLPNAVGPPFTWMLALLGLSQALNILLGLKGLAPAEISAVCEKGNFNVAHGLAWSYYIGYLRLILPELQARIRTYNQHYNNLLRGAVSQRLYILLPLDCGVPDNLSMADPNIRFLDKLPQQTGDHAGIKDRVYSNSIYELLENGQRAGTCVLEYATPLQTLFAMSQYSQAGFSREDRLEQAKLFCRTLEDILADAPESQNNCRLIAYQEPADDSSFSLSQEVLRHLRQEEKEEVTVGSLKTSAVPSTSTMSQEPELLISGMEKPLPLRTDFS
# ASSAY NAME: Activation of human STING expressed in monocytes co-expressing IFN assessed as alkaline phosphatase secretion by SEAP reporter gene assay
# Type: cell-based
Activity calls are given as the source filed them. The rule behind the calls is not given here.
Could you please pick one outcome from this set? true (active), false (inactive)

Qu. Called result for `CCCCC(=O)OC[C@H]1O[C@@H](n2cnc3c(OCC)ncnc32)[C@H](OC(=O)CCCC)[C@@H]1OC(=O)CCCC`
Ans. true

Qu. Entry to check: `CCCCC(=O)OC[C@H]1O[C@@H](n2cnc3c(OCC)ncnc32)[C@H](O)[C@@H]1O`
Ans. true

Qu. Entry to check: `OC[C@H]1O[C@@H](n2cnc3c(NCc4ccc(-c5ccccc5)cc4)ncnc32)[C@H](O)[C@@H]1O`
Ans. true

Qu. Entry to check: `CCOc1ncnc2c1ncn2[C@H]1C[C@H](O)[C@@H](CO)O1`
Ans. false

Qu. Entry to check: `CCOc1ncnc2c1ncn2[C@@H]1O[C@H](CO)[C@@H](O)[C@H]1O`
Ans. true

Qu. Entry to check: `CN(C)/C=N/c1ncnc2c1ncn2[C@@H]1O[C@H](CO)[C@@H](O)[C@H]1O`
Ans. true

Qu. Entry to check: CCOc1ncnc2c1ncn2[C@@H]1O[C@H](COP(=O)(N[C@@H](C)C(=O)OC(C)C)Oc2ccccc2)[C@@H](O)[C@H]1O (stereo partly drawn)
Ans. true

Qu. Entry to check: `COCCNc1ncnc2c1ncn2[C@@H]1O[C@H](CO)[C@@H](O)[C@H]1O`
Ans. true

---

# TESTED SYSTEM: Stimulator of interferon genes protein (Homo sapiens)
# ASSAY NAME: Activation of human STING expressed in monocytes co-expressing IFN assessed as alkaline phosphatase secretion by SEAP reporter gene assay
# Format: cell-based
Calls of active or inactive are those of the source. The calls are words filed in the database; no cut-off is given here.
PARAMETER: Activity

Guide cases for Activity, answers given:
In [3]: df
Out[3]:
                           molecular_string  parameter  data_value
0  CC(C)CNc1ncnc2c1ncn2[C@@H]1O[C@H](CO)[C@@H](O)[C@H]1O   Activity      Active
1  OC[C@H]1O[C@@H](n2cnc3c(NCc4ccccc4)ncnc32)[C@H](O)[C@@H]1O   Activity      Active
2  CN(C)/C=N/c1nc2c(ncn2[C@@H]2O[C@H](CO)[C@@H](O)[C@H]2O)c(=O)[nH]1   Activity    inactive
3  OC[C@H]1O[C@@H](n2cnc3c(OCC(F)(F)F)ncnc32)[C@H](O)[C@@H]1O   Activity      Active

Qu. // lookup Activity for `CCOc1ncnc2c1ncn2[C@@H]1O[C@H](COC(=O)C(C)C)[C@@H](OC(=O)C(C)C)[C@H]1OC(=O)C(C)C`
Ans. Active

Qu. Entry to check: `CN(C)/C=N/c1ncnc2c1ncn2[C@H]1C[C@H](O)[C@@H](CO)O1`
Ans. inactive

Qu. Entry to check: `CCCOc1ncnc2c1ncn2[C@@H]1O[C@H](CO)[C@@H](O)[C@H]1O`
Ans. Active

Qu. Entry to check: `OC[C@H]1O[C@@H](n2cnc3c(OCc4ccccc4)ncnc32)[C@H](O)[C@@H]1O`
Ans. inactive

Qu. Entry to check: `CC(C)Oc1ncnc2c1ncn2[C@@H]1O[C@H](CO)[C@@H](O)[C@H]1O`
Ans. inactive
